target.entity: Tth DNA polymerase (UniProt P52028 P52028:1-834)
Sequence (P52028 whole entry, one chain of several): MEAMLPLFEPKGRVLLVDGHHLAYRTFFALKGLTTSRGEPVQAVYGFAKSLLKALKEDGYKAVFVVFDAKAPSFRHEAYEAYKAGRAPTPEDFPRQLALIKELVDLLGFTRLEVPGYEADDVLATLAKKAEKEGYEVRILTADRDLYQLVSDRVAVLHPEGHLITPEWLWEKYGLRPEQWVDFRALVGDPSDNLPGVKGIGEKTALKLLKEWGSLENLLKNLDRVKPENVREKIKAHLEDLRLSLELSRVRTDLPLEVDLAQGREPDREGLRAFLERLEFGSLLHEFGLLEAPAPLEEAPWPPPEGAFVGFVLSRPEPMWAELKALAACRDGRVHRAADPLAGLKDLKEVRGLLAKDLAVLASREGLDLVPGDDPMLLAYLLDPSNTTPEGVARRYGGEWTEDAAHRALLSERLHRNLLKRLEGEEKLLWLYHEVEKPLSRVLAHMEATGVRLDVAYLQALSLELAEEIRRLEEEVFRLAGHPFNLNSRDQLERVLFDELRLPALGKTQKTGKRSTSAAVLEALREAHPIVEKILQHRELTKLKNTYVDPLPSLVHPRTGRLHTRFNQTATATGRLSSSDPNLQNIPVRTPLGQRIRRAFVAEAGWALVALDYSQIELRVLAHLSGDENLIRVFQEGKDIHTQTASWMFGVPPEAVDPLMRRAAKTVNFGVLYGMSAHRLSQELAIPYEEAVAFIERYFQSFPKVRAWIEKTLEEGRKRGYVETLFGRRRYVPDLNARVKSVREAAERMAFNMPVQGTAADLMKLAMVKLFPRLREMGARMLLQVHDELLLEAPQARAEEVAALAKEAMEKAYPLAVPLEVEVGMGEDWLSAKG
test.summary: inhibition; hairpin extension assay; IT50 35.6 C
experimental.parameters: tags: rTth, 94 kDa, Roche Molecular Systems / Perkin Elmer
parameter: IC50 (nM)
One number for each entry, in nM.

Reported IC50 ( Trnc.21 (ssDNA) DNA: TGGCGGAGCGATCATCTCAGAGCATTCTTAGCGTTTTGTTCTTGTGTATGA ) = 36.5
